Test system: MdaMb231 (breast cancer) cell line
measurement-description: sulforhodamine B (SRB) cytotoxicity assay
Type: cell-based
condition: Homo sapiens, MDA-MB-231, 72 h, 100 μM highest concentration, diluted 1:5 (two series); 3 day incubation; read-out: IC50 Measured Against MdaMb231 Cell Line
Criterion: IC50 strictly under 7 µM. Met: true. Not met: false.

Worked examples follow.
[[record]]
compound = "CN(C)CCNc1ccc2ncn3c4ccc5[nH]ncc5c4c(=O)c1c23 [(XII)]"
measured_target = "MdaMb231 (breast cancer) cell line"
label_class = "false"

[[record]]
compound = "CC(CCN1CCOCC1)Nc1ccc2ncn3c4ccc5[nH]ncc5c4c(=O)c1c23 (centres unmarked) [(XVI)]"
measured_target = "MdaMb231 (breast cancer) cell line"
label_class = "true"

[[record]]
compound = "CCN(CC)CCCNc1ccc2ncn3c4ccc5[nH]ncc5c4c(=O)c1c23 [Compound (XV)]"
measured_target = "MdaMb231 (breast cancer) cell line"
label_class = "true"

[[record]]
compound = "CN(C)CCCNc1ccc2ncn3c4ccc5[nH]ncc5c4c(=O)c1c23 [Compound (IV)]"
measured_target = "MdaMb231 (breast cancer) cell line"
label_class = "true"


Now, please, on to the next compound.
QUERY: Strictly below 7 µM in IC50? CN1CCN(CCCNc2ccc3ncn4c5ccc6[nH]ncc6c5c(=O)c2c34)CC1 [(XVII)]
RESULT: false
